- System: HepG2
- measurementProtocol: Cytotoxicity against human HepG2 cells
- Type: functional, cell-based
Catalogue of molecules with associated IC50
Entry rule: numbers only, all in µM.

As a guide, the following entries are already answered.
Write down the reported IC50 of "C[C@]12CC[C@H](O)C[C@H]1CC[C@@H]1[C@@H]2CC[C@]2(C)[C@@H](c3ccc(=O)oc3)CC[C@]12O" , test system: HepG2.
0.64

Write down the reported IC50 of "CC(=O)O[C@H]1CC[C@@]2(C)[C@H](CC[C@@H]3[C@@H]2CC[C@]2(C)[C@@H](c4ccc(=O)oc4)[C@@H](OC(C)=O)[C@H]4O[C@]342)C1" , test system: HepG2.
6.44

Write down the reported IC50 of "CC(=O)O[C@H]1CC[C@@]2(C)[C@H](CC[C@@H]3[C@@H]2CC[C@]2(C)[C@@H](c4ccc(=O)oc4)[C@@H](OC(C)=O)[C@@H](O)[C@]32O)C1" , test system: HepG2.
3.1

---
Write down the reported IC50 of "CC(=O)O[C@H]1[C@H]2O[C@]23[C@@H]2CC[C@@H]4C[C@@H](O)CC[C@]4(C)[C@H]2CC[C@]3(C)[C@H]1c1ccc(=O)oc1" , test system: HepG2.
5.2

Write down the reported IC50 of "CC(=O)O[C@H]1CC[C@@]2(C)[C@H](CC[C@@H]3[C@@H]2CC[C@]2(C)[C@@H](c4ccc(=O)oc4)CC[C@]32O)C1" , test system: HepG2.
0.74

Write down the reported IC50 of "CC(=O)O[C@H]1C(=O)[C@@]2(C)[C@H]([C@H](OC(=O)c3ccccc3)[C@]3(O)C[C@H](OC(=O)[C@H](O)[C@@H](NC(=O)c4ccccc4)c4ccccc4)C(C)=C1C3(C)C)[C@]1(OC(C)=O)CO[C@@H]1C[C@@H]2O" , test system: HepG2.
0.82
